These entries and their values trace back to ChEMBL document CHEMBL1125295.

SYSTEM UNDER TEST: Vasopressin V1 receptor (Rattus norvegicus) (UniProt P48974+P30560)
Sequence (P30560 whole entry, looked up): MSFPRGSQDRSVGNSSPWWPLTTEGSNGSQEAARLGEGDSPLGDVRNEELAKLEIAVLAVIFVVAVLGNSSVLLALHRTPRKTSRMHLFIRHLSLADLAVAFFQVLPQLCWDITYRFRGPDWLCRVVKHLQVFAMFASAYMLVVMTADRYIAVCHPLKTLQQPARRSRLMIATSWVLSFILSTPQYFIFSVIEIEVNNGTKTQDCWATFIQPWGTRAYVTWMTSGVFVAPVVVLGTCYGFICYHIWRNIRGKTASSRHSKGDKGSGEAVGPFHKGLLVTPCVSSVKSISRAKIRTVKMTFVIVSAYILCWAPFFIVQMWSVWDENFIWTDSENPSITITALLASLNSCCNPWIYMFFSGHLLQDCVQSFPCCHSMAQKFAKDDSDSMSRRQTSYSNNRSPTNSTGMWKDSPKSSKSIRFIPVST
Sequence (P48974 whole entry, looked up): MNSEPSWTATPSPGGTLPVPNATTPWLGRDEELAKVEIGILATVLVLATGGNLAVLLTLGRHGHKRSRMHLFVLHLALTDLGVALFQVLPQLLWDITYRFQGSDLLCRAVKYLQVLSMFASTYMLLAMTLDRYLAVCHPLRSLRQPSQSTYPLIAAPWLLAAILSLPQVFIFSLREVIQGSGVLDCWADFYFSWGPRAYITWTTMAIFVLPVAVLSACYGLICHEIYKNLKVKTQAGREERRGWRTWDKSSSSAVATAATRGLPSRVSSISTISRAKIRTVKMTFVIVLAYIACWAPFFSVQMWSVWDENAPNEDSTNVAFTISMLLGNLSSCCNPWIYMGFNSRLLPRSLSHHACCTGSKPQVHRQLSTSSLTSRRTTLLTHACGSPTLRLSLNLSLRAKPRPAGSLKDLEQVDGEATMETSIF
ASSAY COMMENT: Dose that reduces blood pressure response in rats
Type: functional
*1 amine or outer side, *2 acyl side, *3 side chain or, on linkers, in order; H or OH if unused. Where a SMILES comes first, the peptide text is derived from it. Bridges are numbered along the chain shown (N, C = ends). [ ]: non-standard residue; d: D form. NMeY = CN[C@@H](Cc1ccc(O)cc1)C(=O)O; X1 = O=C(CC1(S[*:2])CCCCC1)[*:1]

COMPOUND	Effective dose (nM/kg)
CC(C)[C@H](NC(=O)[C@H](CCCN=C(N)N)NC(=O)[C@@H]1CCCN1C(=O)[C@H]1CSSC2(CCCCC2)CC(=O)N(C)[C@@H](Cc2ccc(O)cc2)C(=O)N[C@H](Cc2ccccc2)C(=O)N[C@@H](CCC(N)=O)C(=O)N[C@H](CC(N)=O)C(=O)N1)C(N)=O	0.2
CNC(=O)[C@H](CCCN=C(N)N)NC(=O)[C@@H]1CCCN1C(=O)[C@H]1CSSC2(CCCCC2)CC(=O)N(C)[C@@H](Cc2ccc(O)cc2)C(=O)N[C@H](Cc2ccccc2)C(=O)N[C@@H](CCC(N)=O)C(=O)N[C@H](CC(N)=O)C(=O)N1	0.12
CN1C(=O)CC2(CCCCC2)SSC[C@H](C(=O)N2CCC[C@H]2C(=O)N[C@@H](CCCN=C(N)N)C(=O)NCC(=O)NCCN)NC(=O)[C@@H](CC(N)=O)NC(=O)[C@H](CCC(N)=O)NC(=O)[C@@H](Cc2ccccc2)NC(=O)[C@@H]1Cc1ccc(O)cc1	0.27
C[C@H](NC(=O)[C@H](CCCN=C(N)N)NC(=O)[C@@H]1CCCN1C(=O)[C@H]1CSSC2(CCCCC2)CC(=O)N(C)[C@@H](Cc2ccc(O)cc2)C(=O)N[C@H](Cc2ccccc2)C(=O)N[C@@H](CCC(N)=O)C(=O)N[C@H](CC(N)=O)C(=O)N1)C(N)=O	0.13
CN1C(=O)CC2(CCCCC2)SSC[C@H](C(=O)N2CCC[C@H]2C(=O)N[C@@H](CCCN=C(N)N)C(=O)NCCN)NC(=O)[C@@H](CC(N)=O)NC(=O)[C@H](CCC(N)=O)NC(=O)[C@@H](Cc2ccccc2)NC(=O)[C@@H]1Cc1ccc(O)cc1	0.12
CN1C(=O)CC2(CCCCC2)SSC[C@H](C(=O)N2CCC[C@H]2C(=O)N[C@@H](CCCN=C(N)N)C(=O)NCC(N)=O)NC(=O)[C@H](CC(N)=O)NC(=O)[C@H](CCC(N)=O)NC(=O)[C@H](Cc2ccccc2)NC(=O)[C@@H]1Cc1ccc(O)cc1 ([NMeY]FQN[dC]PRG-NH2; linker N-5 via X1)	0.16
CC(C)[C@H](NC(=O)[C@H](CCCN=C(N)N)NC(=O)[C@@H]1CCCN1C(=O)[C@H]1CSSC(C)(C)CC(=O)N(C)[C@@H](Cc2ccc(O)cc2)C(=O)N[C@H](Cc2ccccc2)C(=O)N[C@@H](CCC(N)=O)C(=O)N[C@H](CC(N)=O)C(=O)N1)C(N)=O	0.6
CN1C(=O)CC2(CCCCC2)SSC[C@H](C(=O)N2CCC[C@H]2C(=O)N[C@@H](CCCN=C(N)N)C(=O)N[C@@H](CCCN=C(N)N)C(N)=O)NC(=O)[C@@H](CC(N)=O)NC(=O)[C@H](CCC(N)=O)NC(=O)[C@@H](Cc2ccccc2)NC(=O)[C@@H]1Cc1ccc(O)cc1	0.12
CN1C(=O)CC(C)(C)SSC[C@H](C(=O)N2CCC[C@H]2C(=O)N[C@@H](CCCN=C(N)N)C(=O)N[C@@H](Cc2ccc(O)cc2)C(N)=O)NC(=O)[C@@H](CC(N)=O)NC(=O)[C@H](CCC(N)=O)NC(=O)[C@@H](Cc2ccccc2)NC(=O)[C@@H]1Cc1ccc(O)cc1	0.38
C[C@H](O)[C@H](NC(=O)[C@H](CCCN=C(N)N)NC(=O)[C@@H]1CCCN1C(=O)[C@H]1CSSC2(CCCCC2)CC(=O)N(C)[C@@H](Cc2ccc(O)cc2)C(=O)N[C@H](Cc2ccccc2)C(=O)N[C@@H](CCC(N)=O)C(=O)N[C@H](CC(N)=O)C(=O)N1)C(N)=O	0.22

----------
SYSTEM UNDER TEST: Vasopressin V1 receptor (Rattus norvegicus, UniProt P48974+P30560)
ASSAY COMMENT: In vivo vasopressin V1-antagonistic activity was determined by measuring the blood pressure response in rats.
Assay type: functional, organism-based
*1 amine or outer side, *2 acyl side, *3 side chain or, on linkers, in order; H or OH if unused. Where a SMILES comes first, the peptide text is derived from it. Bridges are numbered along the chain shown (N, C = ends). X1 = O=C(CC1(S[*:2])CCCCC1)[*:1]; X2 = CC(C)(CC(=O)[*:1])S[*:2]
Examples of compounds with documented pA2 follow.
READOUT TYPE: pA2

COMPOUND	READOUT TYPE	EXPERIMENTAL RESULT
COc1ccc(C[C@@H]2NC(=O)CC(C)(C)SSC[C@@H](C(=O)N3CCC[C@H]3C(=O)N[C@@H](CCCN=C(N)N)C(=O)N[C@H](C(N)=O)[C@@H](C)O)NC(=O)[C@H](CC(N)=O)NC(=O)[C@H](CCC(N)=O)NC(=O)[C@H](Cc3ccccc3)NC2=O)cc1 (Y(Me)FQNCPRT-NH2; linker N-5 via X2)	pA2	8.04
CNC(=O)[C@H](CCCN=C(N)N)NC(=O)[C@@H]1CCCN1C(=O)[C@@H]1CSSC2(CCCCC2)CC(=O)N[C@@H](Cc2ccc(OC)cc2)C(=O)N[C@@H](Cc2ccccc2)C(=O)N[C@@H](CCC(N)=O)C(=O)N[C@@H](CC(N)=O)C(=O)N1 (Y(Me)FQNCPR-NHMe; linker N-5 via X1)	pA2	8.73
COc1ccc(C[C@@H]2NC(=O)CC3(CCCCC3)SSC[C@@H](C(=O)N3CCC[C@H]3C(=O)N[C@@H](CCCN=C(N)N)C(=O)N[C@@H](CCCN=C(N)N)C(N)=O)NC(=O)[C@H](CC(N)=O)NC(=O)[C@H](CCC(N)=O)NC(=O)[C@H](Cc3ccccc3)NC2=O)cc1 (Y(Me)FQNCPRR-NH2; linker N-5 via X1)	pA2	8.78

----------
SYSTEM UNDER TEST: Vasopressin V1 receptor (Rattus norvegicus, UniProt P48974+P30560)
ASSAY COMMENT: In vivo vasopressin V1-antagonistic activity was determined by measuring the blood pressure response in rats.
Format: functional, organism-based
*1 amine or outer side, *2 acyl side, *3 side chain or, on linkers, in order; H or OH if unused. Where a SMILES comes first, the peptide text is derived from it. Bridges are numbered along the chain shown (N, C = ends). X1 = O=C(CC1(S[*:2])CCCCC1)[*:1]; X2 = CC(C)(CC(=O)[*:1])S[*:2]

COMPOUND	pA2
COc1ccc(C[C@@H]2NC(=O)CC3(CCCCC3)SSC[C@@H](C(=O)N3CCC[C@H]3C(=O)N[C@@H](CCCN=C(N)N)C(=O)N[C@@H](C)C(N)=O)NC(=O)[C@H](CC(N)=O)NC(=O)[C@H](CCC(N)=O)NC(=O)[C@H](Cc3ccccc3)NC2=O)cc1 (Y(Me)FQNCPRA-NH2; linker N-5 via X1)	8.75
COc1ccc(C[C@@H]2NC(=O)CC(C)(C)SSC[C@@H](C(=O)N3CCC[C@H]3C(=O)N[C@@H](CCCN=C(N)N)C(=O)N[C@@H](CCCN=C(N)N)C(N)=O)NC(=O)[C@H](CC(N)=O)NC(=O)[C@H](CCC(N)=O)NC(=O)[C@H](Cc3ccccc3)NC2=O)cc1 (Y(Me)FQNCPRR-NH2; linker N-5 via X2)	8.52

----------
SYSTEM UNDER TEST: Vasopressin V2 receptor (Rattus norvegicus)
ASSAY COMMENT: Antidiuretic activity in water-loaded rats
*1 amine or outer side, *2 acyl side, *3 side chain or, on linkers, in order; H or OH if unused. Where a SMILES comes first, the peptide text is derived from it. Bridges are numbered along the chain shown (N, C = ends). [ ]: non-standard residue; d: D form. NMeY = CN[C@@H](Cc1ccc(O)cc1)C(=O)O; X1 = O=C(CC1(S[*:2])CCCCC1)[*:1]
Examples of compounds with documented Antidiuretic activity follow.
READOUT TYPE: Antidiuretic activity (units/mg)

COMPOUND	SYSTEM UNDER TEST	READOUT TYPE	EXPERIMENTAL RESULT
CC(C)[C@H](NC(=O)[C@H](CCCN=C(N)N)NC(=O)[C@@H]1CCCN1C(=O)[C@H]1CSSC(C)(C)CC(=O)N(C)[C@@H](Cc2ccc(O)cc2)C(=O)N[C@H](Cc2ccccc2)C(=O)N[C@@H](CCC(N)=O)C(=O)N[C@H](CC(N)=O)C(=O)N1)C(N)=O	Vasopressin V2 receptor (Rattus norvegicus)	Antidiuretic activity	0.039
CN1C(=O)CC2(CCCCC2)SSC[C@H](C(=O)N2CCC[C@H]2C(=O)N[C@@H](CCCN=C(N)N)C(=O)NCC(N)=O)NC(=O)[C@H](CC(N)=O)NC(=O)[C@H](CCC(N)=O)NC(=O)[C@H](Cc2ccccc2)NC(=O)[C@@H]1Cc1ccc(O)cc1 ([NMeY]FQN[dC]PRG-NH2; linker N-5 via X1)	Vasopressin V2 receptor (Rattus norvegicus)	Antidiuretic activity	0.31
CN1C(=O)CC(C)(C)SSC[C@H](C(=O)N2CCC[C@H]2C(=O)N[C@@H](CCCN=C(N)N)C(=O)N[C@@H](CCCN=C(N)N)C(N)=O)NC(=O)[C@@H](CC(N)=O)NC(=O)[C@H](CCC(N)=O)NC(=O)[C@@H](Cc2ccccc2)NC(=O)[C@@H]1Cc1ccc(O)cc1	Vasopressin V2 receptor (Rattus norvegicus)	Antidiuretic activity	0.083
CN1C(=O)CC(C)(C)SSC[C@H](C(=O)N2CCC[C@H]2C(=O)N[C@@H](CCCN=C(N)N)C(=O)N[C@@H](Cc2ccc(O)cc2)C(N)=O)NC(=O)[C@@H](CC(N)=O)NC(=O)[C@H](CCC(N)=O)NC(=O)[C@@H](Cc2ccccc2)NC(=O)[C@@H]1Cc1ccc(O)cc1	Vasopressin V2 receptor (Rattus norvegicus)	Antidiuretic activity	0.029
